# Test system: A2780/DX5 cells
# Protocol details: Sulforhodamine B (SRB) cytotoxicity assay in A2780/DX5 cells
# Type: cell-based
# Conditions used: A2780/DX5 versus A2780/WT
# reported IC50 Ratio; entries follow
Hey, just send me the number, nothing else.

Before answering, review these 4 worked examples.
>>> observed_result("CC[C@@]1(O)C(=O)OCc2c1cc1n(c2=O)Cc2c-1nc1ccc(OC(C)C)cc1c2CC[Si](C)(C)C")
1.2
>>> observed_result("CC[C@@]1(O)C(=O)OCc2c1cc1n(c2=O)Cc2c-1nc1ccc(OCCOC)cc1c2CC[Si](C)(C)C")
1.0
>>> observed_result("CCOc1ccc2nc3c(c(CC[Si](C)(C)C)c2c1)Cn1c-3cc2c(c1=O)COC(=O)[C@]2(O)CC")
1.2
>>> observed_result("CC[C@@]1(O)C(=O)OCc2c1cc1n(c2=O)Cc2c-1nc1ccc(OCC(N)=O)cc1c2CC[Si](C)(C)C")
11.8

Now look at this entry.
Write down the reported IC50 Ratio of CC[C@@]1(O)C(=O)OCc2c1cc1n(c2=O)Cc2c-1nc1ccc(OCCCO)cc1c2CC[Si](C)(C)C , test system: A2780/DX5 cells.
2.5
